B1: DVL3 (parent)
chain: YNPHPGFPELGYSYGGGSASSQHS

Variants of: B1
assay-method-text: protein stability index of a GFP-peptide fusion (GPS, HEK-293T) (PSI 1-6); higher = more stable;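 also: lentivirally expressed fusions sorted by FACS into six bins by GFP to DsRed ratio, PSI derived from sequencing read proportions per bin multiplied by bin number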
measurement-setup: c terminus: a fixed tail appended
measure-name: protein stability index
Reply with the value as a number alone.

Tell me measured protein stability index for YNPHPGFPELGYSYGGGSASSQNS [H23N] please. 2.99

Name the recorded protein stability index of the item YNNHPGFPELGYSYGGGSASSQHS [P3N] in your answer. 2.79

# return recorded protein stability index for entry YNPHPGFPELGLSYGGGSASSQHS [Y12L] 2.03

Find the measured protein stability index of YNPPPGFPELGYSYGGGSASSQHS [H4P] and report it. 2.29

Recall and state the measured protein stability index for YNPHPGFPELGYSYGGGSASTQHS [S21T] . 2.64

Respond only with protein stability index recorded for YNPHPGFPEQGYSYGGGSASSQHS [L10Q] 3.18

Note down protein stability index recorded for YNPHTGFPELGYSYGGGSASSQHS [P5T] 2.36

Give recorded protein stability index. YNPNPGFPELGYSYGGGSASSQHS [H4N] 2.73

Provide protein stability index value for the following variant: YNPYPGFPELGYSYGGGSASSQHS [H4Y] 2.35

For the variant YNPHPGFPELWYSYGGGSASSQHS [G11W] , report protein stability index. 2.29

Hello, please tell me recorded protein stability index for this one: YNPHPGFPNLGYSYGGGSASSQHS [E9N] 2.46

Could you please provide reported protein stability index for YNPHPAFPELGYSYGGGSASSQHS [G6A] ? Thanks! 2.78

Note protein stability index for the variant shown: YNPHPGFPELGYSYQGGSASSQHS [G15Q] 2.63

Give recorded protein stability index. YNPHPGFPTLGYSYGGGSASSQHS [E9T] 1.84

Provide only the value of recorded protein stability index for YNPHPGFPEGGYSYGGGSASSQHS [L10G] 2.94

Determine its reported protein stability index: YNPHPGFNELGYSYGGGSASSQHS [P8N] 3

Supply measured protein stability index of YNPHPGFPELGYSYGLGSASSQHS [G16L] in your reply. 2.3

Give protein stability index for YNPHPGFPELGYTYGGGSASSQHS [S13T] 2.23

Supply measured protein stability index of YNPHPGFPELGYSYGGGSAPSQHS [S20P] in your reply. 2.89

Quickly give me recorded protein stability index for YNPHPGLPELGYSYGGGSASSQHS [F7L] 3.35

Give the value of protein stability index reported for the following: YNPHPGFPELGESYGGGSASSQHS [Y12E] 3.79

Specify measured protein stability index for YNPHPGFPQLGYSYGGGSASSQHS [E9Q] . 2.04

Return the recorded protein stability index value; entry: YNPHPGFPELGYSYGGESASSQHS [G17E] 3.05

Specify measured protein stability index for YNPHPGFPELGYSYGGGSASSPHS [Q22P] . 2.98

Find the measured protein stability index of YNPHPGFPELGYEYGGGSASSQHS [S13E] and report it. 3.71

Fill in protein stability index for record YNPHPGFMELGYSYGGGSASSQHS [P8M] 2.52

Return the recorded protein stability index value; entry: YNPHPGFPELGYHYGGGSASSQHS [S13H] 2.59

Supply recorded protein stability index for YNPHPGFPELGYSYGGGSASSQWS [H23W] here. 2.19

Return the recorded protein stability index value; entry: YNPHPGFPELGSSYGGGSASSQHS [Y12S] 3.15

State its protein stability index for this variant: YNTHPGFPELGYSYGGGSASSQHS [P3T] 3.08

Give reported protein stability index value for YNPHPGFPELGYSYGGGMASSQHS [S18M] 2.08

Fill in protein stability index for record YNPHPGFPELGYSYGGGSASCQHS [S21C] 2.1

Note down protein stability index recorded for GNPHPGFPELGYSYGGGSASSQHS [Y1G] 4.47

Identify measured protein stability index associated with YNPHPGFPELGYSYGGGSASPQHS [S21P] 2.88

Tell me its protein stability index given YNPHPGFPELGYSYGGGSKSSQHS [A19K] as the entry. 2.94

Give the measured protein stability index for YNPHPGFPELGYSYGGGPASSQHS [S18P] 2.71

Provide measured protein stability index value, entry: YNPHPGFPELGYSEGGGSASSQHS [Y14E] 4.1

Quick one: give measured protein stability index for YNPHPGFPELGYSYGGGSASSQHG [S24G] 3.11

Indicate its recorded protein stability index; the variant in question is YNPHVGFPELGYSYGGGSASSQHS [P5V] 2.41

Check the records and state protein stability index for YNPHPGFPELGYSYGGGSASSQHY [S24Y] 2.26

Return the recorded protein stability index value; entry: YNPHPGFPELGYSYGGGSASSQHD [S24D] 3.13

Give the reported value of protein stability index for this record: YNPHPGFPELGYSYGGGSANSQHS [S20N] 2.74

Given the variant YNPHPGFPELGYSYGGGCASSQHS [S18C] , write its reported protein stability index. 2.57

Provide measured protein stability index value, entry: YNPHPGFPEVGYSYGGGSASSQHS [L10V] 3.17
